Assignment: determine reported Kd for the given binders.
target_or_system: T1, soluble L-selectin (Homo sapiens, UniProt P14151 P14151:39-332)
T1 sequence: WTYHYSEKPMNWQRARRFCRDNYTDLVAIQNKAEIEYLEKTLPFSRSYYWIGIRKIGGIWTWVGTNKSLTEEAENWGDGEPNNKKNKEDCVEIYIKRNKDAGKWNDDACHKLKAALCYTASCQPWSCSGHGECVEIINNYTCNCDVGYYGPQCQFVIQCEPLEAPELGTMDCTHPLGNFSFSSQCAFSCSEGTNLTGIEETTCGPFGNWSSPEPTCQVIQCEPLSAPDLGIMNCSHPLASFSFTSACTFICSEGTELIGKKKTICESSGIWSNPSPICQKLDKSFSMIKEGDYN
protocol_notes: filter; 37 C, soluble L-selectin
experimental_context: tags: R&D Systems; label: 32P
Give bare numbers, in nM.

# binder, readout_unit, Kd
rows = [
    ("LF1516 (ssRNA, 2'-F on all C and U) RNA: GGGAGGACGAUGCGGUCAUUCUCUAAAAAAGUAUUCCGUACCUCCACAGACGACUCGCCCGA", "nM", 1.3),
]

Note: attention shifts to another entry.
Query: What measured Kd goes with LF1817 (ssRNA, 2'-F on all C and U) RNA: GGGAGGACGAUGCGGUGCUUAAACAACGCGUGAAUCGAGUUCAUCCACUCCUCCUCAGACGACUCGCCCGA ?
Result: 2.3
